System: CYP3A4 (Homo sapiens, UniProt P08684)
Sequence (P08684 whole entry): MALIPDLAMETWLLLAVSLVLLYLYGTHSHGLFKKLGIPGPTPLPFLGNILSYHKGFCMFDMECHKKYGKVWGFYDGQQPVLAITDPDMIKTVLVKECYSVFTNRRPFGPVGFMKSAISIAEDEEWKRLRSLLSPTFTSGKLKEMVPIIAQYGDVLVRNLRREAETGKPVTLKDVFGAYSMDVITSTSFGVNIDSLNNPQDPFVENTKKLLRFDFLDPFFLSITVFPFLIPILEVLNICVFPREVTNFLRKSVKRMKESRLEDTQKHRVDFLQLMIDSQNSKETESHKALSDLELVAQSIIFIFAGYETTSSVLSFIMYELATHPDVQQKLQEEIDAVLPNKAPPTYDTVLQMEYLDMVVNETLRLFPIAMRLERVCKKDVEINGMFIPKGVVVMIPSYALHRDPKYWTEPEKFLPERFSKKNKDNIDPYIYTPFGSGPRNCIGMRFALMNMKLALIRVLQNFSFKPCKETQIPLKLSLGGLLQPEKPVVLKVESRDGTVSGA
Assay Method Text: Inhibition of CYP3A4 in human liver microsomes assessed as residual activity at 5 uM using midazolam as substrate measured after 20 mins by LC-MS/MS analysis relative to control
Type: ADME
Condition Notes: probe midazolam, read-out: Activity
Recorded Metric: activity at 20 min, 5 µM (%)

# Smiles Data, System, Recorded Metric, Measurement
rows = [
    ("CCNC(=O)c1ccc(-c2c(C)nc3c(OCc4ccc(-c5ccccc5)cc4)cccn23)cn1.Cl", "CYP3A4 (Homo sapiens, UniProt P08684)", "activity at 20 min, 5 µM", 101),
]

====

Listed below: Kp values for each entry.
Assay Method Text: […], ratio of drug concentration in brain to plasma at steady state in ddY mouse at 30 mg/kg, po by LC-MS/MS analysis
Assay type: ADME, organism-based

# Smiles Data, Kp
records = [
    ("CCNC(=O)c1ccc(-c2c(C)nc3c(OCc4ccc(-c5ccccc5)cc4)cccn23)cn1.Cl", 0.45),
    ("CCNC(=O)c1ccc(-c2c(C)nc3c(OCc4ccccc4F)cccn23)cn1.Cl", 0.27),
    ("CCN1Cc2cc(-c3c(C)nc4c(OCc5ccccc5)cccn34)ccc2C1=O.Cl", 0.72),
    ("CCNC(=O)c1ccc(-c2c(C)nc3c(OCc4cccc(-c5ccccc5)c4)cccn23)cn1.Cl", 0.12),
]

====

Assay Method Text: in vitro
Condition Notes: CD1, mouse, liver microsomes
Listed below: microsomal CLint at 0.75 h, 0.2 µM values for each entry.

# Smiles Data, Sign, microsomal CLint at 0.75 h, 0.2 µM, µL/min/mg
measured = [
    ("CCNC(=O)c1ccc(-c2c(C)nc3c(OCc4cccc(-c5ccccc5)c4)cccn23)cn1.Cl", "=", 367),
    ("CCNC(=O)c1ccc(-c2c(C)nc3c(OCc4ccc(-n5cncn5)cc4)cccn23)cn1", "=", 49.9),
    ("CCNC(=O)c1ccc(-c2c(C)nc3c(OCc4ccc(C)cc4C)cccn23)cn1", "=", 652),
    ("CCNC(=O)c1ccc(-c2c(C)nc3c(OCc4ccccc4)cccn23)cn1", "=", 324),
    ("CCNC(=O)c1ccc(-c2c(C)nc3c(OCCc4ccccc4)cccn23)cn1", ">", 1000),
    ("CCNC(=O)c1ccc(-c2c(C)nc3c(OCc4ccc(-c5ccccc5)cc4)cccn23)cn1.Cl", "=", 84.7),
    ("CCNC(=O)c1ccc(-c2c(C)nc3c(OCc4cccc(F)c4)cccn23)cn1", "=", 295),
    ("CCNC(=O)c1ccc(-c2c(C)nc3c(OCc4ccc(C)cc4)cccn23)cn1", "=", 438),
    ("CCNC(=O)c1ccc(-c2c(CO)nc3c(OCc4ccccc4)cccn23)cn1", "=", 75.7),
    ("CCN1C(=O)c2ccc(-c3c(C)nc4c(OCc5ccccc5)cccn34)cc2C1(C)C", ">", 1000),
    ("CCNC(=O)c1ccc(-c2c(C)nc3c(OCc4ccccc4)cccn23)cc1F", "=", 500),
    ("CCNC(=O)c1ccc(-c2c(COC)nc3c(OCc4ccccc4)cccn23)cn1", "=", 350),
    ("CCNC(=O)c1ccc(-c2c(C#N)nc3c(OCc4ccccc4)cccn23)cn1", "=", 318),
    ("CCNC(=O)c1ccc(-c2c(C)nc3c(OCc4c(C)cc(C)cc4C)cccn23)cn1", ">", 1000),
    ("CCNC(=O)c1ccc(-c2c(C)nc3c(OCc4cccc(C(=O)N(C)C)c4)cccn23)cn1", "=", 77.9),
    ("CCNC(=O)c1ccc(-c2c(C)nc3c(OCc4ccccc4-c4ccccc4)cccn23)cn1", ">", 1000),
    ("CCNC(=O)c1ccc(-c2c(C)nc3c(OCc4ccccc4F)cccn23)cn1.Cl", "=", 228),
]
